Reference for the values: PubChem BioAssay (NCI)

Test system: HCT-15 colon
Experiment: NCI-60 one-dose screen, 48 h
Details: 10 µM unless noted
The panel holds about 83,000 compounds, 20% with a hit somewhere; the sample as a whole holds those more often. Active and inactive are the calls of the source. How the source made its calls: active means growth percent below 10; inactive means the rest.
Output constraint: value belongs to label 1 = active, label 0 = inactive

{"molecule": "Clc1ccc2c(OCCCN3CCOCC3)c3oc4ccccc4c3nc2c1", "class-name": "label 0"}

Call for entry O=C(c1ccc(O)cc1)C1[C@H](c2ccc(Cl)cc2)[C@@H](c2ccccc2)NC12C(=O)Nc1ccc(Cl)cc12 (stereo not given in full) :
label 0

Call for entry N#Cc1ccc(/C=N/NC(=O)c2[nH]c3ccc(Br)cc3c2-c2ccccc2)s1 :
label 1

Call for entry COc1cc(OC)c(S(=O)(=O)NNC(=O)c2ccncc2)cc1C(=O)/C=C/c1ccc(C)cc1 :
label 0

Call for entry [Cl][Ru].c1ccc(-c2cc(-c3ccccn3)nc(-c3ccccn3)c2)cc1.c1ccc(-c2ccnc3c2ccc2c(-c4ccccc4)ccnc23)cc1 :
label 0

Call for entry Cc1nc(-c2cc3ccccc3oc2=O)ccc1C(=O)/C=C/c1ccccn1 :
label 1

Call for entry Cc1[nH]nc2ncc(C#Cc3cncc(C(=O)Nc4ccc(CN5CCN(C)CC5)c(C(F)(F)F)c4)c3)cc12 :
label 0

Call for entry COc1ccc(NC2=C(Cl)C(=O)C(C)=C(C)C2=O)cc1OC :
label 0

Call for entry COc1ccc(-c2cc(C(=O)N=Nc3c(O)[nH]c4ccccc34)c3ccccc3n2)cc1OC :
label 0

Call for entry C#C[C@]1(O)CC[C@H]2[C@@H]3CC=C4c5sc(-c6ccc(F)cn6)nc5CC[C@]4(C)[C@H]3CC[C@@]21C :
label 0

Call for entry Cc1cccc2sc(/N=C(\N)C(Cl)(Cl)Cl)nc12 :
label 0

Call for entry Clc1ccc2oc3c(OCCCn4ccnc4)c4ccccc4nc3c2c1 :
label 0

Call for entry Nc1c(C(=O)Nc2ccc(C(F)(F)F)cc2)sc2nc(-c3cnccn3)cc(-c3cccs3)c12 :
label 0

Call for entry CNC(=O)c1cc(-c2ccc(NC(=O)Nc3ccc(N4CCOCC4)c(C(F)(F)F)c3)cc2)nc2cccnc12 :
label 0

Call for entry NS(=O)(=O)c1ccc(Nc2nc(SCC(=O)c3ccc(Cl)cc3)nc3ccccc23)cc1 :
label 0
